- System: HIV-1IIIB
- protocol.details: HIV cytoprotection assay, CEM-SS cells infected with HIV-1IIIB (MTS)
- Type: cell-based
- particulars: Human immunodeficiency virus 1, CEM-SS, 144 h, read-out: IC50 (concentration inhibiting virus replication by 50%)
measured.parameter: IC50

stdin: Given the entry Cc1cc(C)nc(NS(=O)(=O)c2cc(Cl)ccc2Cl)n1 , report its measured IC50.
stdout: 62 µM
